Source of measurements: patent US20190345225A1

Quick reference for Kd among some binders
Molecular target: T1, growth differentiation factor 11 (GDF11) (UniProt O95390 299-407)
T1 sequence (looked up): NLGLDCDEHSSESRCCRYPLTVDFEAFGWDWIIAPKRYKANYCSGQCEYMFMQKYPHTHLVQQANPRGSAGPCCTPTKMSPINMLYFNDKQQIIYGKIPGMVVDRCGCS
Assay: SPR, Biacore 3000; receptor fusion captured on chip, ligand in solution
Numeric only. Scale: pM

Find the recorded Kd belonging to ActRIIa/b-delta 9m2 (SEQ ID NO: 38) fused to the N-terminus of hFc through a GGG linker (Fc fusion, also called ActRIIa/bΔ9m2 variant; not shown: human Fc (hFc)) GAILGRSETQECLFYNANWELDRTNQTGVERCEGEKDKRLHCYATWRNISGSIEIVKKGCWLDDINCYDRTDCVETKENPQVYFCCCEGNMCNEKFSYFPEMEVTQPTSGGG and report it.
222

Find the recorded Kd belonging to ActRIIa/bmax1 (SEQ ID NO: 70) fused to the N-terminus of hFc through a GGG linker (Fc fusion, also called ActRIIa/bmax1 variant; not shown: human Fc (hFc)) GAILGRSETQECLYYNANWELERTNQTGVERCEGEQDKRLHCYATWRNISGSIEIVKKGCWLDDFNCYDRTDCVETEENPQVYFCCCEGNMCNEKFSYFPEMEVTQPTSGGG and report it.
236

Find the recorded Kd belonging to extracellular ActRIIa/bΔ9 min variant (SEQ ID NO: 6) fused to the N-terminus of hFc through a GGG linker (Fc fusion, not shown: human Fc (hFc)) GAILGRSETQECLFYNANWELDRTNQTGVEPCEGEKDKRLHCFATWKNISGSIEIVKKGCWLDDINCYDRTDCVETKENPQVYFCCCEGNMCNEKFSYFPEMEVTQPTSGGG and report it.
114

Find the recorded Kd belonging to extracellular ActRIIa/bΔ9 variant (SEQ ID NO: 58) fused to the N-terminus of hFc through a GGG linker (Fc fusion, also called ActRIIA/BΔ9-Fc; not shown: human Fc (hFc)) GAILGRSETQECLFYNANWELDRTNQTGVERCEGEKDKRLHCYATWRNISGSIEIVKKGCWLDDFNCYDRTDCVETKENPQVYFCCCEGNMCNEKFSYFPEMEVTQPTSGGG and report it.
115

Find the recorded Kd belonging to ActRIIa/b-delta 9m3 (SEQ ID NO: 41) fused to the N-terminus of hFc through a GGG linker (Fc fusion, also called ActRIIa/bΔ9m3 variant; not shown: human Fc (hFc)) GAILGRSETQECLFYNANWELDRTNQTGVERCEGEKDKRLHCFATWRNISGSIEIVKKGCWLDDFNCYDRTDCVETKENPQVYFCCCEGNMCNEKFSYFPEMEVTQPTSGGG and report it.
117

Find the recorded Kd belonging to extracellular ActRIIa/b variant (SEQ ID NO: 69) fused to the N-terminus of hFc through a GGG linker (Fc fusion, also called ActRIIA/B-Fc; not shown: human Fc (hFc)) GAILGRSETQECLFYNANWELERTNQTGVERCEGEKDKRLHCYATWRNISGSIEIVKKGCWLDDFNCYDRTDCVETEENPQVYFCCCEGNMCNEKFSYFPEMEVTQPTSGGG and report it.
186

Find the recorded Kd belonging to ActRIIa/bmax3 variant (SEQ ID NO: 72) fused to the N-terminus of hFc through a GGG linker (Fc fusion, not shown: human Fc (hFc)) GAILGRSETQECLFYNANWELERTNQTGVERCEGEKDKRLHCYATWRNISGSIEIVKKGCWLDDFNCYDRTDCVETEENPQVYFCCCEGNMCNEKFSYFPEMEVTQPTSNPVTPKGGG and report it.
214

Find the recorded Kd belonging to ActRIIa/bmax2 (SEQ ID NO: 71) fused to the N-terminus of hFc through a GGG linker (Fc fusion, also called ActRIIa/bmax2 variant; not shown: human Fc (hFc)) GAILGRSETQECLFYNANWELERTNQTGVERCEGEKDKRLHCYATWRNISGSIEIVKKGCWLDDFNCYDRTDCVETEENPQVYFCCCEGNMCNEKFSYFPEMEVTQPTSNPGGG and report it.
113

Find the recorded Kd belonging to ActRIIa/b-delta 9m4 (SEQ ID NO: 44) fused to the N-terminus of hFc through a GGG linker (Fc fusion, also called ActRIIa/bΔ9m4 variant; not shown: human Fc (hFc)) GAILGRSETQECLFYNANWELDRTNQTGVEPCEGEKDKRLHCYATWRNISGSIEIVKKGCWLDDFNCYDRTDCVETKENPQVYFCCCEGNMCNEKFSYFPEMEVTQPTSGGG and report it.
394
